Measured pKd accompanies every entry in the list below.
- system-under-test: T1, PUF4 RNA-binding domain (Saccharomyces cerevisiae, UniProt P25339 537-888)
- T1 sequence: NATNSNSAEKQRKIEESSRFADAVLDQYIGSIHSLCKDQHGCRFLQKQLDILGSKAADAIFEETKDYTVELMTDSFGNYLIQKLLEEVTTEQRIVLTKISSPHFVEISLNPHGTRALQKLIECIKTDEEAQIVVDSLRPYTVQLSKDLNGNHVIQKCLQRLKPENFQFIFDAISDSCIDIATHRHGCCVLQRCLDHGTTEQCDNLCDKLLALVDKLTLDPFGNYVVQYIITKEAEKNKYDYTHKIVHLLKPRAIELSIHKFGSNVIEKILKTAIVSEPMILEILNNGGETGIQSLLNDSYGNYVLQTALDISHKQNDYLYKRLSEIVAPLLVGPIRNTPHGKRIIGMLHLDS
- protocol: Mg; RNA-MaP; 20 mM Na-HEPES pH 7.4, 30 mM KOAc, 0.75 mM MgCl2, 0.1% Tween-20, 5% glycerol, 0.1 mg/mL BSA, 2 mM DTT; 25 C; 0.0125-409.6 nM protein
- condition-summary: tags: N-His6-TEV cleaved; C-SNAP kept, Cy3B-labelled; label: tethered on chip by stalled RNA polymerase
pKd: −log10 of the molar value.
outcome-measure: pKd

| binder | reported |
| --- | --- |
| UCUCUUCAAUGUAUAUAUAUCUCUU (ssRNA) [Id_i_S1_P3E.5_K3.1_C3.3_[T-3C]_[C-2A]_[T-1A]_H3.1_A3.1_F3.1_T3.2] | 8.10 |
| UCUCUUUCGUAUUAUUAUCUCUU (ssRNA) [Ie_S1_P5E.1_K5.1_C5.1_H5.1_[+1C]_A5.1_F5.1_T5.1] | 5.88 |
| Ic_S2_P5E.1_K5.1_C5.1_H5.1_A5.1_[T6C]_[A7C]_F5.1_[T8A]_[T9G]_[A10C]_T5.1 (ssRNA) RNA: UUUGAUUAAUAUGAUAUCGUUCUUUCUUGUAUCCAGCUUCUUUCUCGAUAUCAUAUUAAUCUUU | 5.81 |
